B1: Caulobacter ParB omega fusion; a variant is named by its letters at X, in order, B8GW30 (parent)
chain: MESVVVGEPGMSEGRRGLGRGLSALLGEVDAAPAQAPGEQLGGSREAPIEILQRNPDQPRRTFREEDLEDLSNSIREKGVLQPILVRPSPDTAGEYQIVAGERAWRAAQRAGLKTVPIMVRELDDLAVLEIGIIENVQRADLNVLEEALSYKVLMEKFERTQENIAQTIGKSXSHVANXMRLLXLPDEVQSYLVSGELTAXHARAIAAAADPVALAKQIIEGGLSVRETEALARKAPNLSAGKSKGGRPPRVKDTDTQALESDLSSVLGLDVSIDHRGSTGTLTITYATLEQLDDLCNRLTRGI

# Variants of: B1
# EXPERIMENT: one-hybrid fitness for binding parS DNA (scaled: cognate 1, non-cognate 0); higher = stronger binding
# CONDITIONS: with parS DNA site
Over roughly 81,000 sequences, “one-hybrid fitness for binding parS DNA” has its median near -0.17; the highest 2% begin near 0.51. The list comes from a sample in which the highest values are over-represented; it also holds close analogues and randomly drawn sequences.
Reported one-hybrid fitness for binding parS DNA by item:

In the examples that follow, each entry is paired with its recorded one-hybrid fitness for binding parS DNA.
{"VARIANT_SPEC": "RIFD", "ENDPOINT_LABEL": "one-hybrid fitness for binding parS DNA", "RESULT": "≤ 0.2"}
{"VARIANT_SPEC": "GRPC", "ENDPOINT_LABEL": "one-hybrid fitness for binding parS DNA", "RESULT": "≤ 0.2"}
{"VARIANT_SPEC": "PKIS", "ENDPOINT_LABEL": "one-hybrid fitness for binding parS DNA", "RESULT": "≤ 0.2"}
{"VARIANT_SPEC": "RSWH", "ENDPOINT_LABEL": "one-hybrid fitness for binding parS DNA", "RESULT": "≤ 0.2"}
{"VARIANT_SPEC": "GFLD", "ENDPOINT_LABEL": "one-hybrid fitness for binding parS DNA", "RESULT": "≤ 0.2"}

Kindly note the recorded one-hybrid fitness for binding parS DNA for GPLA , which is ≤ 0.2

Kindly note the recorded one-hybrid fitness for binding parS DNA for YPFR , which is ≤ 0.2

Kindly note the recorded one-hybrid fitness for binding parS DNA for RPWC , which is ≤ 0.2

Kindly note the recorded one-hybrid fitness for binding parS DNA for REWC , which is ≤ 0.2

Kindly note the recorded one-hybrid fitness for binding parS DNA for VEFL , which is ≤ 0.2

Kindly note the recorded one-hybrid fitness for binding parS DNA for RMWL , which is ≤ 0.2

Kindly note the recorded one-hybrid fitness for binding parS DNA for HRNR , which is ≤ 0.2

Kindly note the recorded one-hybrid fitness for binding parS DNA for MFWG , which is ≤ 0.2
